target: Endonuclease III-like protein 1 (Homo sapiens) (UniProt P78549); details: Compound Concentration 10.0 uM, Hit No;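 also: enzyme assay tracking NTHL1 cutting and release of a quenched double-stranded DNA oligo substrate, read as fluorescence at 594 nm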
Sequence (P78549 whole entry): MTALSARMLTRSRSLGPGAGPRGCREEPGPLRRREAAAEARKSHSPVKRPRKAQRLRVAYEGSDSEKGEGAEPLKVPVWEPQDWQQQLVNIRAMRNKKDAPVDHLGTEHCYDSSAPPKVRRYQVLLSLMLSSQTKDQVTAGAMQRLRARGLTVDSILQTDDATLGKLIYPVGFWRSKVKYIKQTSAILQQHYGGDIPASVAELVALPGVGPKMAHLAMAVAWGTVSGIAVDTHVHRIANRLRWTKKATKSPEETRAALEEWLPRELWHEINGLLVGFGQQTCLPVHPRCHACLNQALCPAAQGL
Description: Inhibition of NTHL1 by quantifying inhibition of NTHL1-mediated cleavage and dissociation of quenched duplex DNA oligonucleotides, measured as fluorescence at 594 nm.
Rule: inhibition under 10% gives criterion not met, otherwise criterion met.

-- ask Dear colleague, could you confirm whether COc1ccc(NS(=O)(=O)c2sc3ccc(Cl)cc3c2C)cc1N1CCNCC1 has inhibition at or above 10%?
-- reply criterion not met

-- ask I'd appreciate it if you could say whether c1ccc2c(c1)CCC[C@H]2Nc1nc2ccccc2[nH]1 has inhibition at least equal to 10%.
-- reply criterion not met

-- ask Please tell me: is the compound N#Cc1ccc(Cn2ccc(NC(=O)Cc3ccc(C4(C(F)(F)F)CC4)cc3)n2)nc1 at or over 10% in terms of inhibition?
-- reply criterion met

-- ask Given Cc1cn2cc(CC(=O)N3CCC4(CC3)CN(Cc3ccc(-n5nccn5)cc3Cl)C4)nc2s1 , state whether its inhibition is at least 10%.
-- reply criterion not met

###

target: N-glycosylase/DNA lyase (Homo sapiens) (UniProt O15527); conditions: Compound Concentration 10.0 uM, Hit No
Sequence (O15527 whole entry): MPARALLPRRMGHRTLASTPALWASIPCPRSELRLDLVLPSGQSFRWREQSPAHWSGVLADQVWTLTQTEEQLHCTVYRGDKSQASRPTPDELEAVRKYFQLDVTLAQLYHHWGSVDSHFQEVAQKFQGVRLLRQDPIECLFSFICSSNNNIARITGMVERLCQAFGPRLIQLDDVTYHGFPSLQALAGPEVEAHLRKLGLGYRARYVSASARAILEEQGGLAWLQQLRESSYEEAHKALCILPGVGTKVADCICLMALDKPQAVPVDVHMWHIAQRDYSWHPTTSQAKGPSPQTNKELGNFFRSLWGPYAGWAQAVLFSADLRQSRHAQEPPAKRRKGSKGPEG
Description: Inhibition of OGG1 by quantifying inhibition of OGG1-mediated cleavage and dissociation of quenched duplex DNA oligonucleotides, measured as fluorescence at 594 nm. To generate a functional strand incision and increase turn-over this assay is coupled to APE1.
measureName: inhibition (%)
Give a bare numeral; the unit % is implied.

-- ask For the compound shown here, N#Cc1ccc(Cn2ccc(NC(=O)Cc3ccc(C4(C(F)(F)F)CC4)cc3)n2)nc1 , give the reported inhibition.
-- reply -2.87

-- ask Consider the compound O=C(Nc1ccc(-n2nc(C(F)(F)F)cc2C(F)(F)F)cc1)c1ccncc1F and give its measured inhibition.
-- reply -5.81

-- ask Which inhibition value belongs to C=CC(=O)Nc1ccc2[nH]c(=O)n(C3CCN(Cc4ccc(-c5nc6cc[nH]c(=O)c6cc5-c5ccccc5)cc4)CC3)c2c1 ?
-- reply 49.4

-- ask Item COc1ccc2c(c1)C(C(=O)N(Cc1ccc(N(C)C)cc1)c1ccc(C(C)C)cc1)CCC2 (configuration not stated) has what recorded inhibition?
-- reply 3.53

-- ask Query: inhibition; subject: COc1cc(Nc2ccc([N+](=O)[O-])cc2C(=O)O)cc2ccccc12
-- reply 33.4

-- ask Fill blank: measured inhibition of the compound CCc1ccc(OCc2ccccc2C(=O)Nc2ccc3nc(C)cc(N)c3c2)cc1 is ____.
-- reply 12.5

-- ask Would you mind telling me what inhibition value was observed for COc1cccc(Cn2cc(C(=O)Nc3ccc(C)c(S(=O)(=O)N4CCOCC4)c3)c(-c3ccc(C)cc3)n2)c1 ?
-- reply 11.1

-- ask Which inhibition is listed for COc1cc(NC(=O)c2ccc(-c3ccc(Cl)cc3)o2)cc(OC)c1 ?
-- reply 3.08

-- ask What does the data say about its inhibition? Entry: COc1cc2nc(N3CCN(C(=O)COc4c(OC)cccc4C(C)C)CC3)nc(N)c2cc1OC
-- reply -9.97

-- ask What value of inhibition has been recorded for this entry: Cc1ccc2nc(NCCN)c3ncc(C)n3c2c1
-- reply 47.4

-- ask Which inhibition value belongs to CCCN(CCc1cccs1)[C@H]1CCc2c(O)cccc2C1 ?
-- reply -7.03

-- ask Query: inhibition; subject: CCCN(CCC)[C@@H]1CCc2ccc3[nH]c(C#N)cc3c2C1
-- reply 5.74

-- ask Look at this compound and give its reported inhibition. COC(=O)[C@H]1[C@H]2C[C@H]3c4[nH]c5ccccc5c4CCN3C[C@H]2CC[C@@H]1O
-- reply -6.57

-- ask Given the entry Cc1nccc(COC(=O)N2C[C@@H]3[C@@H](CNC(=O)c4ccc5[nH]nnc5c4)[C@@H]3C2)n1 , report its measured inhibition.
-- reply -5.03

-- ask Can you look up the measured inhibition of Oc1cc2c(cc1O)C(c1ccccc1)CNCC2 (configuration not stated) for me?
-- reply -0.929

-- ask May I ask what inhibition has been recorded for C=CC(=O)Nc1ccc2[nH]c(=O)n(C3CCN(Cc4ccc(-c5ccc6c(c5)NC(=O)CO6)cc4)CC3)c2c1 ?
-- reply 15.8

-- ask Need inhibition of CC(=O)N1CCC(c2ccc(C(=O)NC3=NCCN3)cc2C(F)(F)F)CC1 , thanks.
-- reply -3.66

-- ask Request the reported inhibition associated with Cc1cc(-c2ccc3c(c2)CC[C@H]3N2CC3(CCN(C(=O)Cc4cn5cc(C)sc5n4)CC3)C2)ncn1
-- reply -7.69

-- ask For Cn1cc(C(=O)O)c2ccc(N3CCC(OCc4c(-c5c(Cl)cccc5Cl)noc4C4CC4)CC3)cc21 , what is its reported inhibition?
-- reply 24

-- ask What measured inhibition goes with CCO[C@H](COc1ccc(C(F)(F)F)cc1)CSc1ccc(OCC(=O)O)c(C)c1 ?
-- reply 20.8

-- ask Dear colleague, I am looking for the recorded inhibition of the following compound: COc1cc(Nc2nc(C)cc(-c3cnn4nc(OC)ccc34)n2)cc(C(F)(F)F)c1
-- reply -9.1

-- ask I'd like to know its inhibition. The compound in question is Cc1nc[nH]c1CCN
-- reply -7.09

-- ask What does the data say about its inhibition? Entry: O=C(Nc1nc2cccc(-c3ccc(CN4CCS(=O)(=O)CC4)cc3)n2n1)C1CC1
-- reply 1.15

-- ask Fill in the blank: the reported inhibition of Cc1ccc(Cn2nc(C(=O)N[C@@H]3C(C)(C)[C@@H]4CC[C@@]3(C)C4)cc2-c2ccc(Cl)c(C)c2)cc1 is ____.
-- reply -0.971

-- ask // inhibition lookup, key: C=CC(=O)N1CCC([C@@H]2CCNc3c(C(N)=O)c(-c4ccc(Oc5ccccc5)cc4)nn32)CC1
-- reply 6.47

-- ask Can you share its inhibition? I mean this compound: N[C@@H](Cc1cc(I)c(Oc2ccc(O)c(I)c2)c(I)c1)C(=O)O
-- reply 4.51

-- ask // lookup inhibition for CC(C)C[C@@H](NC(=O)[C@H](Cc1ccccc1)NC(=O)CNC(=O)[C@@H](C)NC(=O)[C@@H](N)Cc1ccc(O)cc1)C(=O)O
-- reply -5.5

-- ask // query inhibition value for entry Cn1cncc1[C@@](O)(COc1ccc(C#N)cc1-c1ccc(OC(F)(F)F)cc1)c1ccc(C#N)cc1
-- reply 10.2

-- ask Need inhibition of CC(C)C[C@H](NC(=O)N1CCCCCC1)C(=O)N[C@H](Cc1cn(C)c2ccccc12)C(=O)N[C@H](Cc1ccccn1)C(=O)O , thanks.
-- reply -9.37

-- ask Fill blank: measured inhibition of the compound O=C(O)CCc1ccc(NCc2cccc(Oc3ccccc3)c2)cc1 is ____.
-- reply -0.368

-- ask Data request, read-out inhibition, for C=C1/C(=C\C=C2/CCC[C@]3(C)[C@@H]([C@H](C)/C=C/[C@H](C)C(C)C)CC[C@@H]23)C[C@@H](O)C[C@@H]1O
-- reply -5.13

-- ask // inhibition lookup, key: CN[C@@H]1CCc2[nH]c3ccc(C(N)=O)cc3c2C1
-- reply 3.36

-- ask Could you tell me which inhibition is on file for Cc1cc(OCC(=O)O)cc(C)c1Cc1ccc(O)c(C(C)C)c1 ?
-- reply 20.6

-- ask Please report the recorded inhibition for O=C(Nc1ccc(C(O)(C(F)(F)F)C(F)(F)F)cc1)c1ccc(C(F)(F)F)cc1 .
-- reply 30.3

-- ask Given the entry CCNC1(C(N)=O)CCN(c2ncnc3c2nc(-c2ccccc2Cl)n3-c2ccc(Cl)cc2)CC1 , report its measured inhibition.
-- reply -3.75

-- ask Form field: reported inhibition of CS(=O)(=O)c1cccc(NC(=O)N(Cc2ccc(C(=O)Nc3nnn[nH]3)cc2)c2ccc(C3CCCCC3)cc2)c1
-- reply 18.7

-- ask Entry CCOC(=O)N[C@@H]1CC[C@@H]2[C@@H](C1)C[C@H]1C(=O)O[C@H](C)[C@H]1[C@H]2/C=C/c1ccc(-c2cccc(F)c2)cn1 has what inhibition?
-- reply 8.48
